Data origin: patent US20250215104A1

molecular target: T1, cynomolgus soluble urokinase plasminogen activator receptor (cynomolgus suPAR) (cynomolgus, UniProt Q9GK78 23-303, limits assumed); experiment: BLI (Octet) off-rate screen of scFv
T1 construct: also called cynomolgus uPAR; cynoPLAUR-His
T1 sequence (Q9GK78 23-303 limits assumed): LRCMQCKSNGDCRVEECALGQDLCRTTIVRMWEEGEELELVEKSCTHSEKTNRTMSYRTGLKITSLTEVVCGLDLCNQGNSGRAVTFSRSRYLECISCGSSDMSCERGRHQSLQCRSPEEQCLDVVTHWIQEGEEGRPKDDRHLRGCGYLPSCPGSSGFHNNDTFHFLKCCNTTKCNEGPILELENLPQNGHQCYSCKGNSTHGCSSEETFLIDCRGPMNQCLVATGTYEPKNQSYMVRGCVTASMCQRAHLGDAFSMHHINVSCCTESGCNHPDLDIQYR
// reported koff for each item listed
Write the number in s⁻¹ without appending the unit.

Recorded koff, per entry:
[
  {
    "BINDER": "suPAR_DB01_H10 (scFv, V domains shown, Screened as scFv) VH: QVQLVQSGAEVKKPGASVKVSCKASGYTFTNYYMHWVRQAPGQGLEWMGWIDHENGSTIYAQKFQGRVTMTRDTSTSTVYMELSSLRSEDTAVYYCARGYDVDWFVYWGQGTLVTVSS VL: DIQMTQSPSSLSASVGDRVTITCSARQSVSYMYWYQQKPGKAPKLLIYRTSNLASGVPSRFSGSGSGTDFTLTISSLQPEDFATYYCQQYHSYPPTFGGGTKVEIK",
    "koff [s⁻¹]": 0.000374
  },
  {
    "BINDER": "suPAR_DB01_G04 (scFv, V domains shown, Screened as scFv) VH: QVQLVQSGAEVKKPGASVKVSCKASGYTLSGYYMHWVRQAPGQGLEWMGWIDPNSGGTKYAQKFQGRVTMTRDTSTSTVYMELSSLRSEDTAVYYCARGYDVDWFVYWGQGTLVTVSS VL: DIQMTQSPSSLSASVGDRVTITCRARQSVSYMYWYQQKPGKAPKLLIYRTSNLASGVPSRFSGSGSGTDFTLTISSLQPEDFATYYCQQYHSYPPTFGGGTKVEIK",
    "koff [s⁻¹]": "7.99e-05"
  },
  {
    "BINDER": "suPAR_DB01_H05 (scFv, V domains shown, Screened as scFv) VH: QVQLVQSGAEVKKPGASVKVSCKASGYTFTGNYVHWVRQAPGQGLEWMGWIDHENGNTIYDQKFQGRVTMTRDTSTSTVYMELSSLRSEDTAVYYCARGYDVDWFVYWGQGTLVTVSS VL: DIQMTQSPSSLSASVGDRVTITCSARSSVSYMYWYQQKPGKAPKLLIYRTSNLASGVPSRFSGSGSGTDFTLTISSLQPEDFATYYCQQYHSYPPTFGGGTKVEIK",
    "koff [s⁻¹]": 0.000432
  },
  {
    "BINDER": "suPAR_DB02_A09 (scFv, V domains shown, Screened as scFv) VH: QVQLVQSGAEVKKPGASVKVSCKASGYTFTNYYMHWVRQAPGQGLEWMGWIDPEGGSTIYDQKFQGRVTMTRDTSTSTVYMELSSLRSEDTAVYYCARGYDVDWFVYWGQGTLVTVSS VL: DIQMTQSPSSLSASVGDRVTITCSARQSISYMYWYQQKPGKAPKLLIYRTSNLASGVPSRFSGSGSGTDFTLTISSLQPEDFATYYCQQYHSYPPTFGGGTKVEIK",
    "koff [s⁻¹]": 0.000484
  }
]

Query block: May I ask what koff has been recorded for suPAR_DB01_G02 (scFv, V domains shown, Screened as scFv) VH: QVQLVQSGAEVKKPGASVKVSCKASGYSFTDYYMHWVRQAPGQGLEWMGWIDHENGNTIYAQKFQGRVTMTRDTSTSTVYMELSSLRSEDTAVYYCARGYDVDWFVYWGQGTLVTVSS VL: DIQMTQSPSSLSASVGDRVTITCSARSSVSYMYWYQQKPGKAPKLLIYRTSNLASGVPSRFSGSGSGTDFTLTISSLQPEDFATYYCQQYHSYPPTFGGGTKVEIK ?
Result block: 0.000149
